Molecular target: human TrkA (Homo sapiens (Human), UniProt P04629)
Sequence (P04629 440-796): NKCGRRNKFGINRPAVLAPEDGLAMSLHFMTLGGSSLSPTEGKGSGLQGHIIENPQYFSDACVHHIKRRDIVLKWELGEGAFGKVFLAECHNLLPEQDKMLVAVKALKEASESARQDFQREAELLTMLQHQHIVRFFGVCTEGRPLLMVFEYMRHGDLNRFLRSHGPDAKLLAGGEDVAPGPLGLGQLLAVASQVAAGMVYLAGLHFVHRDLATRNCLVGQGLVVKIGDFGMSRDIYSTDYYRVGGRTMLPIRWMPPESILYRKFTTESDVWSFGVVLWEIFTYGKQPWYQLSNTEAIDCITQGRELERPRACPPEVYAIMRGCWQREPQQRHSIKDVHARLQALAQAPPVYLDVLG
Test: Human TrkA inhibition assay (Test Example 2)
Type: biochemical
Settings: Table 155, human TrkA inhibition; read-out: IC50
readout: IC50

Some solved entries appear below for comparison.
compound="COCCN1C[C@@H](NC(=O)Nc2c(C)c(-c3ccc(=O)n(C)c3)nn2-c2ccccc2)[C@H](c2ccc(F)c(F)c2)O1 [Compound I-498]" assay_system="human TrkA (Homo sapiens (Human), UniProt P04629)" readout=IC50 endpoint_result="< 100 nM"
compound="COCCN1C[C@@H](NC(=O)Nc2c(C)c(-c3cnc(Br)nc3)nn2-c2ccccc2)[C@H](c2ccnc(F)c2)O1 (racemic) [Compound I-433]" assay_system="human TrkA (Homo sapiens (Human), UniProt P04629)" readout=IC50 endpoint_result="< 100 nM"
compound="COCCN1C[C@@H](NC(=O)Nc2c(C)c(-c3cnc(N4CC5(CCOCC5)C4)nc3)nn2-c2ccccc2)[C@H](c2ccnc(F)c2)O1 (racemic) [Compound I-408]" assay_system="human TrkA (Homo sapiens (Human), UniProt P04629)" readout=IC50 endpoint_result="< 100 nM"

I would be grateful if you could share the reported IC50 for COCCN1C[C@@H](NC(=O)Nc2c(C)c(-c3cnc(N4CCC5(CC4)COC5)nc3)nn2-c2ccccc2)[C@H](c2ccnc(F)c2)O1 (racemic) [Compound I-484] .
< 100 nM

I would be grateful if you could share the reported IC50 for CNC(=O)c1nn(-c2ccccc2)c(NC(=O)N[C@@H]2CN(CCOC)O[C@H]2c2ccnc(F)c2)c1C (racemic) [Compound I-384] .
< 100 nM

I would be grateful if you could share the reported IC50 for CNC(=O)c1cc(NC(=O)N[C@@H]2CN(CCOC)O[C@H]2c2ccnc(F)c2)n(-c2ccccc2)n1 (racemic) [Compound I-388] .
> 1000 nM
